- Tested on: 922993-354-T-J3-PDC complex spheroid viability;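 also: spheroids exposed to the agents for one week; 100% = DMSO vehicle control wells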
- procedure_summary: Anticancer human tumor 922993-354-T-J3-PDC patient-derived endometrial carcinoma cell line growth inhibition [POLQ]
- condition_parameters: second compound 0.316 µM; first compound 0.1 µM; hits give low values
value_type: viability, T/C

What value of viability, T/C has been reported for the following molecule? CNCc1ccc(-c2[nH]c3cc(F)cc4c3c2CCNC4=O)cc1 + COC1C(OC(N)=O)C(O)C(Oc2ccc3c(O)c(NC(=O)c4ccc(O)c(CC=C(C)C)c4)c(=O)oc3c2C)OC1(C)C
103%

What value of viability, T/C has been reported for the following molecule? CC(C)n1c(=O)n(C)c2cnc3cc(F)c(-c4ccc(OCCCN5CCCCC5)nc4)cc3c21 + Nc1ccc(C#CCN(C(=O)Cc2ncc(C(F)(F)F)cc2C(F)(F)F)c2ccc(F)cc2)nn1
107%

What value of viability, T/C has been reported for the following molecule? CC1COCCN1c1cc(-c2ccnn2C)c2ccnc(-c3ccn[nH]3)c2n1 (centres undefined) + Nc1ccc(C#CCN(C(=O)Cc2ncc(C(F)(F)F)cc2C(F)(F)F)c2ccc(F)cc2)nn1
93.1%

What value of viability, T/C has been reported for the following molecule? COc1cccc(OCCCN)c1-c1cc(Nc2cnc(C#N)cn2)n[nH]1 + COC1C(OC(N)=O)C(O)C(Oc2ccc3c(O)c(NC(=O)c4ccc(O)c(CC=C(C)C)c4)c(=O)oc3c2C)OC1(C)C
84.6%

What value of viability, T/C has been reported for the following molecule? Nc1ccn(C2OC(CO)C(O)C2(F)F)c(=O)n1 (centres undefined) + Nc1ccc(C#CCN(C(=O)Cc2ncc(C(F)(F)F)cc2C(F)(F)F)c2ccc(F)cc2)nn1
24%

What value of viability, T/C has been reported for the following molecule? COc1cccc2c1C(=O)c1c(O)c3c(c(O)c1C2=O)CC(O)(C(=O)CO)CC3OC1CC(N)C(O)C(C)O1 (centres undefined) + Nc1ccc(C#CCN(C(=O)Cc2ncc(C(F)(F)F)cc2C(F)(F)F)c2ccc(F)cc2)nn1
101%

What value of viability, T/C has been reported for the following molecule? CCc1c2c(nc3ccc(O)cc13)-c1cc3c(c(=O)n1C2)COC(=O)[C@]3(O)CC + Cc1cccc(N(C)C(=O)C2C(O)CCN2c2nc(C)cc(C(F)(F)F)c2C#N)c1
11.9%
